- Experimental System: human Mac-1 (integrin αMβ2, CD11b/CD18) (human, UniProt P11215 17-1152; P05107 23-769)
- Experimental Protocol: flow cytometry, HEK293/Mac-1 cells (clone 1-4), PBS (Mock)
Output Met for Mock MFI not less than 50000 MFI; output Not met otherwise.

| Binder | Assigned Category |
| --- | --- |
| anti-Mac-1 antibody clone m2396 (antibody, human IgG4, V domains shown) VH: QVQLQESGPGLVKPSETLSLTCTVSGFSLTSNSISWVRQPPGKGLEWMGAIWSGGGTDYNPSLKSRLTISRDTSKSQVFLKMSSLTAADTAIYFCTRGGYPYYFDYWGQGVLVTVSS VL: DIVMTQSPDSLAVSLGERVTINCKSSQSLLYSENQENYLAWYQQKPGQSPKLLIYWASTRQSGVPDRFSGSGSGTDFTLTISSVQAEDLAIYYCQQYYDTPLTFGGGTKLEIK | Met |
| anti-Mac-1 antibody clone 28E07 (antibody, human IgG4, V domains shown) VH: QVQLQQSGPELVKPGASVKISCKASGYSFTDYNMNWVKQSNGKSLEWIGEINPGYGTSRYNQKFKDKATLTVDQSSTTAYMQLNSLTSEDSAVYYCARADVDYGDVMDYWGQGTTVTVSS VL: DIELTQSPAIMSASPGEKVTMTCSASSSVSYMHWYQQKSGTSPKRWIYDTSKLASGVPTRFSGSGSGTSYSLTISSMEAEDAATYYCQQWSSNPPTFGAGTKLELK | Met |
| anti-Mac-1 antibody clone H4L2 (antibody, human IgG4, V domains shown) VH: QVQLVQSGAEVKKPGASVKVSCKASGYTFTNYWINWVRQAPGQRLEWMGNIYPSDTYINHNQKFKDRVTITRDTSASTAYMELSSLRSEDTAVYYCARSAYANYFDYWGQGTLVTVSS VL: EIVMTQSPATLSVSPGERATLSCRASQNIGTSIHWYQQKPGQAPRLLIYYASESISGIPARFSGSGSGTEFTLTISSLQSEDFAVYYCQQSDSWPTLTFGQGTKLEIK | Not met |
| anti-Mac-1 antibody clone DF4M-31 (antibody, human IgG4, V domains shown) VH: EVQLVESGGGLVQPGGSLRLSCAASGFTFTSATMSWVRQAPGKGLEWVSIISPGGSETYYADSVKGRFTISRDNSKNTLYLQMNSLRAEDTAVYYCARGGDYPSYYMDPWGQGTLVTVSS VL: DIQMTQSPSSLSASVGDRVTITCRASQSISNYLAWYQQKPGKAPKLLIYGTSSLQSGVPSRFSGSGSGTDFTLTISSLQPEDFATYYCQQGHQWPWTFGQGTKVEIK | Not met |
